- System: reserpine-induced hypothermia
- Assay Summary: Antidepressive action: reserpine antagonism, inhibition of reserpine-induced hypothermia of the mouse
- Type: in vivo, male Swiss mice
- Reported Conditions: Mus musculus; Table 1; oral administration 60 min before reserpine; dose based on the base; read-out: ED 50% (dose which inhibits the reserpine-induced hypothermia of the mouse by 50%)
Structures can show the parent of a compound that is named as a salt.
Classes by ED50: low interval (below 0.7 mg/kg), middle interval (0.7 mg/kg to below 1 mg/kg), high interval (1 mg/kg or more)

# Compound, Category Label
measured = [
    ("CNC(=S)N=c1ccn(-c2ccccc2)nc1", "high interval"),
    ("COc1cc(=NC(=O)c2ccc(Cl)cc2Cl)cnn1-c1ccccc1", "middle interval"),
    ("CCSC(=O)N=c1cnn(-c2ccccc2)c(OC)c1", "high interval"),
    ("CC(=O)N=c1ccn(-c2ccccc2)nc1 [Example 1, hydrochloride]", "low interval"),
    ("COc1cc(=NC(C)=O)cnn1-c1ccccc1", "high interval"),
    ("CCCCOC(=O)N=c1cnn(-c2ccccc2)c(OC)c1", "middle interval"),
]

Task: Which category does the recorded ED50 put `CCCC(=O)N=c1cnn(-c2ccccc2)c(OC)c1` in?
Output: high interval

Task: Which category does the recorded ED50 put CC(C)C(=O)N=c1ccn(-c2ccccc2)nc1 [Example 5, hydrochloride] in?
Output: low interval

Task: Which category does the recorded ED50 put `C=CCOC(=O)N=c1ccn(-c2ccccc2)nc1` in?
Output: low interval

Task: Which category does the recorded ED50 put `CCNC(=S)N=c1ccn(-c2ccccc2)nc1` in?
Output: high interval
